- tested-system: T1, gH/gL/UL128/UL130/UL131A pentamer complex expressed from MVA-PC in BHK-21 cells (human cytomegalovirus, UniProt P12824 24-743; P16832 31-278; P16837 28-171; P16772 1-214; F5HET4 19-129)
- T1 construct: whole, on cells
- test-details: FC competition, MVA-PC BHK-21; unlabelled row Ab; competitor: biotinylated 18F10
Listing of recorded Binding Inhibition (%) by entry.
I only need the number, in %, no unit after it.

binder	readout-unit	recorded-number
18F10 (antibody, V domains shown, also called NAb 18F10) VH: QVTLKESGPGILQPSQTLSLTCSFSGFSLSTYGIGIGWIRQPSGKGLEWLAHIWWNDNKNYNTALKSRLTISKDPSNNQVFLKIASVDTADTATYFCARTGYFDVWGAGTTVTVSS VL: DVVLTQTPLSLPVSLGDQVSISCSSSQSLVHSNGNTYIHWYLQKPGQSPKLLIYTVSNRFSGVPDRFSGSGSGTDFTLKISRVEAEDLGLYFCSQSTHVPYTFGGGTKLEIK	%	100

query: Output Binding Inhibition (%) of 12E2 (antibody, V domains shown, also called NAb 12E2) VH: EVKLVESGGGLVQPGGSLKLSCATSGFTFSDYYMFWVRQTPEKKLEWVAYISNGGGSTYYPDTVKGRFTISRDNDKNTLYLQMSRLKSDDTALYYCVRPKRDFQYLYAMDYWGQGTSVTVSS VL: DIVLTQSPASLAVSLGQRATISCRASKSVSTSGYSYMHWYQQKPGQSPKLLIYLASNLESGVPARFSGSGSGTDFTLNIHPVEDEDAATYYCQHSRELPWTFGGGTKLEIK
result: 0

query: Output Binding Inhibition (%) of 13B5 (antibody, V domains shown, also called NAb 13B5; 1365) VH: QVTLKESGPGILKPSQTLSLTCSFSGFSLTTSGLGVGWIRQPSGKGLEWLAHIWWDDDKYFNPSLRNQLTISKDTSRNQVFLEITSVTTADTATYYCVRSLYDYDEGYYFDSWGQGTTLTVSS VL: EIVMIQSPATLSVNPGDRVSLSCRASQSISDYLHWYQQKSHESPRLLIKYASQSISGIPSRFSGSGSGSDFTLSINSVEPEDVGVYYCQNGHTFPPTFGGGTKLEIK
result: 0
